assay: Half life in OFA rat at 3 mg/kg, po measured upto 24 hrs by HPLC/UV analysis; format: ADME, organism-based; conditions: in vivo

>  <compound>
O=C(Nc1cccc(C(F)(F)F)c1)c1cccc2cc(Oc3cc(CO)ncn3)ccc12 [BFH-772]

>  <half-life>
4.1 h

$$$$

---

system: HUVEC; test: Antiproliferative activity against bFGF-stimulated HUVEC cells assessed as cell growth inhibition measured after 24 hrs by BrdUrd incorporation based spectrophotometric analysis; details: Homo sapiens
Here the recorded IC50 is given for each entry.
reported.endpoint: IC50

>  <molecular.string>
Nc1cc(Oc2ccc3c(C(=O)Nc4cccc(C(F)(F)F)c4)cccc3c2)ncn1

>  <reading>
> 3000 nM

$$$$
>  <molecular.string>
Nc1nccc(Oc2ccc3c(C(=O)Nc4cccc(C(F)(F)F)c4)cccc3c2)n1

>  <reading>
> 3000 nM

$$$$
>  <molecular.string>
Clc1ccc(Nc2nnc(Cc3ccncc3)c3ccccc23)cc1.O=C(O)CCC(=O)O

>  <reading>
> 3000 nM

$$$$
>  <molecular.string>
Nc1cc(Oc2ccc3c(C(=O)Nc4ccc(F)c(C(F)(F)F)c4)cccc3c2)ncn1

>  <reading>
206 nM

$$$$
>  <molecular.string>
O=C(Nc1cccc(C(F)(F)F)c1)c1cccc2cc(Oc3cc(CO)ncn3)ccc12

>  <reading>
> 3000 nM

$$$$
>  <molecular.string>
CCN(CC)CCNC(=O)c1c(C)[nH]c(/C=C2\C(=O)Nc3ccc(F)cc32)c1C

>  <reading>
> 3000 nM

$$$$
>  <molecular.string>
O=C(Nc1cccc(C(F)(F)F)c1)c1ccccc1NCc1ccncc1

>  <reading>
> 3000 nM

$$$$
>  <molecular.string>
Nc1nccc(Oc2ccc3c(C(=O)Nc4ccc(F)c(C(F)(F)F)c4)cccc3c2)n1

>  <reading>
> 10 nM

$$$$

---

Here the recorded pIC50 is given for each entry.
target: Mast/stem cell growth factor receptor Kit (Homo sapiens, UniProt P10721); test: Inhibition of human recombinant GST-fused c-KIT expressed in baculovirus expression system using poly-Glu-Tyr (4:1) as substrate measured after 10 mins in presence of gamma-[33P]-ATP by scintillation counting analysis
pIC50: −log10 of the molar value.
reported.endpoint: pIC50

>  <molecular.string>
Nc1nccc(Oc2ccc3c(C(=O)Nc4cccc(C(F)(F)F)c4)cccc3c2)n1

>  <reported.endpoint>
pIC50

>  <reading>
< 5.00

$$$$
>  <molecular.string>
O=C(Nc1cccc(C(F)(F)F)c1)c1cccc2cc(Oc3cc(CO)ncn3)ccc12

>  <reported.endpoint>
pIC50

>  <reading>
< 5.70

$$$$

---

target: UniProt P17948; assay: Inhibition of human recombinant GST-fused VEGFR1 kinase domain transphosphorylation expressed in baculovirus expression system using poly-Glu-Tyr (4:1) as substrate measured after 10 mins in presence of gamma-[33P]-ATP by scintillation counting analysis
pIC50: −log10 of the molar value.
Assign class by pIC50: not lower than 6 means TRUE; lower than 6 means FALSE.

>  <molecular.string>
Nc1cc(Oc2ccc3c(C(=O)Nc4ccc(F)c(C(F)(F)F)c4)cccc3c2)ncn1

>  <system.tested>
UniProt P17948

>  <category.label>
TRUE

$$$$
>  <molecular.string>
Nc1nccc(Oc2ccc3c(C(=O)Nc4ccc(F)c(C(F)(F)F)c4)cccc3c2)n1

>  <system.tested>
UniProt P17948

>  <category.label>
TRUE

$$$$
>  <molecular.string>
Nc1cc(Oc2ccc3c(C(=O)Nc4cccc(C(F)(F)F)c4)cccc3c2)ncn1

>  <system.tested>
UniProt P17948

>  <category.label>
TRUE

$$$$
>  <molecular.string>
O=C(Nc1cccc(C(F)(F)F)c1)c1cccc2cc(Oc3cc(CO)ncn3)ccc12

>  <system.tested>
UniProt P17948

>  <category.label>
FALSE

$$$$

---

Here the recorded pIC50 is given for each entry.
target: Insulin receptor (Homo sapiens); experiment: Inhibition of INSR (unknown origin) autophosphorylation expressed in […] by ELISA-based assay
pIC50: −log10 of the molar value.
reported.endpoint: pIC50

>  <molecular.string>
Nc1nccc(Oc2ccc3c(C(=O)Nc4cccc(C(F)(F)F)c4)cccc3c2)n1

>  <reading>
< 6.30

$$$$
>  <molecular.string>
O=C(Nc1cccc(C(F)(F)F)c1)c1cccc2cc(Oc3cc(CO)ncn3)ccc12

>  <reading>
< 6.30

$$$$

---

Here the recorded pIC50 is given for each entry.
molecular target: Epidermal growth factor receptor (Homo sapiens); assay: Inhibition of EGFR (unknown origin) autophosphorylation expressed in human A-431 cells by ELISA-based assay
pIC50: −log10 of the molar value.
reported.endpoint: pIC50

>  <molecular.string>
O=C(Nc1cccc(C(F)(F)F)c1)c1cccc2cc(Oc3cc(CO)ncn3)ccc12

>  <reported.endpoint>
pIC50

>  <reading>
< 6.30

$$$$
>  <molecular.string>
Nc1nccc(Oc2ccc3c(C(=O)Nc4cccc(C(F)(F)F)c4)cccc3c2)n1

>  <reported.endpoint>
pIC50

>  <reading>
< 6.30

$$$$

---

test system: BaF3; assay: Antiproliferative activity against mouse BaF3 cells expressing NPM-ALK assessed as cell growth inhibition measured after 72 hrs by Alamar Blue assay; details: BaF3, 72 h

>  <molecular.string>
Clc1ccc(Nc2nnc(Cc3ccncc3)c3ccccc23)cc1.O=C(O)CCC(=O)O

>  <system.tested>
BaF3

>  <IC50>
> 10 µM

$$$$
>  <molecular.string>
O=C(Nc1cccc(C(F)(F)F)c1)c1cccc2cc(Oc3cc(CO)ncn3)ccc12

>  <system.tested>
BaF3

>  <IC50>
> 10 µM

$$$$
>  <molecular.string>
Nc1nccc(Oc2ccc3c(C(=O)Nc4ccc(F)c(C(F)(F)F)c4)cccc3c2)n1

>  <system.tested>
BaF3

>  <IC50>
> 10 µM

$$$$
>  <molecular.string>
CNC(=O)c1cc(Oc2ccc(NC(=O)Nc3ccc(Cl)c(C(F)(F)F)c3)cc2)ccn1

>  <system.tested>
BaF3

>  <IC50>
1.01 µM

$$$$
>  <molecular.string>
Nc1nccc(Oc2ccc3c(C(=O)Nc4cccc(C(F)(F)F)c4)cccc3c2)n1

>  <system.tested>
BaF3

>  <IC50>
> 10 µM

$$$$
>  <molecular.string>
CCN(CC)CCNC(=O)c1c(C)[nH]c(/C=C2\C(=O)Nc3ccc(F)cc32)c1C

>  <system.tested>
BaF3

>  <IC50>
1.15 µM

$$$$
>  <molecular.string>
O=C(Nc1cccc(C(F)(F)F)c1)c1ccccc1NCc1ccncc1

>  <system.tested>
BaF3

>  <IC50>
> 5.5 µM

$$$$
>  <molecular.string>
Nc1cc(Oc2ccc3c(C(=O)Nc4cccc(C(F)(F)F)c4)cccc3c2)ncn1

>  <system.tested>
BaF3

>  <IC50>
> 10 µM

$$$$
>  <molecular.string>
Nc1cc(Oc2ccc3c(C(=O)Nc4ccc(F)c(C(F)(F)F)c4)cccc3c2)ncn1

>  <system.tested>
BaF3

>  <IC50>
> 10 µM

$$$$

---

target: Vascular endothelial growth factor receptor 2 (Mus musculus); test: Inhibition of mouse recombinant GST-fused VEGFR2 kinase domain expressed in baculovirus expression system using poly-Glu-Tyr (4:1) as substrate measured after 10 mins in presence of gamma-[33P]-ATP by scintillation counting analysis
# note: boundary value 300 nM maps to not met; IC50 below it maps to met

>  <compound>
Nc1nccc(Oc2ccc3c(C(=O)Nc4cccc(C(F)(F)F)c4)cccc3c2)n1

>  <category.label>
met

$$$$
>  <compound>
Nc1cc(Oc2ccc3c(C(=O)Nc4cccc(C(F)(F)F)c4)cccc3c2)ncn1

>  <category.label>
met

$$$$
>  <compound>
Nc1cc(Oc2ccc3c(C(=O)Nc4ccc(F)c(C(F)(F)F)c4)cccc3c2)ncn1

>  <category.label>
met

$$$$
>  <compound>
O=C(Nc1cccc(C(F)(F)F)c1)c1cccc2cc(Oc3cc(CO)ncn3)ccc12 [BFH-772]

>  <category.label>
not met

$$$$
>  <compound>
O=C(Nc1cccc(C(F)(F)F)c1)c1ccccc1NCc1ccncc1

>  <category.label>
met

$$$$
>  <compound>
Nc1nccc(Oc2ccc3c(C(=O)Nc4ccc(F)c(C(F)(F)F)c4)cccc3c2)n1

>  <category.label>
not met

$$$$

---

Here the recorded IC50 is given for each entry.
target: Vascular endothelial growth factor receptor 2 (Homo sapiens, UniProt P35968); assay: Inhibition of human recombinant GST-fused VEGFR2 kinase domain transphosphorylation expressed in baculovirus expression system using poly-Glu-Tyr (4:1) as substrate measured after 10 mins in presence of gamma-[33P]-ATP by scintillation counting analysis

>  <molecule>
Nc1nccc(Oc2ccc3c(C(=O)Nc4cccc(C(F)(F)F)c4)cccc3c2)n1

>  <IC50, nM>
9

$$$$
>  <molecule>
O=C(Nc1cccc(C(F)(F)F)c1)c1cccc2cc(Oc3cc(CO)ncn3)ccc12 [BFH-772]

>  <IC50, nM>
2.7

$$$$
>  <molecule>
CCN1CCN(Cc2ccc(NC(=O)Nc3ccc(Oc4cc(NC)ncn4)cc3)cc2C(F)(F)F)CC1 [AST-487]

>  <IC50, nM>
3

$$$$
